Target or system: T1, CD27 expressed on the cell surface (HT1080_CD27 cells) (human, UniProt P26842 20-260); note: test concentration or dose not given here
T1 sequence (looked up): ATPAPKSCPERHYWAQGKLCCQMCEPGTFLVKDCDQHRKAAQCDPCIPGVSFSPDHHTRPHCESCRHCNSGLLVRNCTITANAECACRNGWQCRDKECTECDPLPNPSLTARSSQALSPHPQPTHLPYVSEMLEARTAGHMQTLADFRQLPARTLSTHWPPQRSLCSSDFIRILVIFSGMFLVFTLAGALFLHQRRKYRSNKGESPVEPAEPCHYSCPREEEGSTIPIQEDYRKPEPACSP
Assay notes: cell-based or functional assay
Provide the reported IL-8 [abs. corr.] of each item.
Give bare numbers, in abs. corr..

# Binder, IL-8 [abs. corr.], abs. corr.
measured = [
    ("P018.S.10.A.C03 (antibody, V domains shown, V regions on human Ig constant parts; also called AB27_172) VH: QSVEESGGRLVTPGTPLTLTCTVSGFSLSSYYMIWVRQAPGKGLEWIGIINTSGGAYYATWANGRFTISRTSTTVDLKITSPTTEDTATYFCARYLDNGFYCPDLWGQGTLVIVSS VL: DIVMTQTPSSVSEAVGGTVTIKCQASEDIYTLLAWYQQKPGQPPKLLIYKASILASGVSSRFKGGGSGADFTLTISDLESADAATYYCQSTYYGAAYIGAFGGGTEVVVK", 0.079),
    ("P018.S.05.A.D04 (antibody, V domains shown, V regions on human Ig constant parts; also called AB27_87) VH: QSLEESGGDLVKPGASLTLTCTASEFDFNNNAMCWVRQAPGKGLEWIACIYIGNGGTWYASWAKGRFTISKSSSTTVTLQVTSLTAADTATYFCARGENIAYFILWGPGTLVTVSS VL: DIVMTQTPASVSAAVGGTVTIKCQASQSINSWLSWYQQKPGQPPKLLIYKASTLASGVPSRFKGSGSGTEFTLTISDLESADAATYYCQGYYYYSSSNYASNAFGGGTEVVVK", 0.246),
    ("P018.S.02.A.H05 (antibody, V domains shown, V regions on human Ig constant parts; also called AB27_40) VH: QSLEESGGDLVKPGASLTLTCTASGIDFSSSSMCWVRQAPGKGLEWIACIDTGSSGRTDYASWAKGRFTLSKTSATTVTLQMTSLTAADTATYFCTRYGDYAGYGYDSFDPWGPGTLVTVSS VL: AQVLTQTPSSVSAAVGGTVTINCQASQNINNWCSWYQQKPGQPPKLLIAYASTLASGVSSRFKGSGSGTQFTLTISGVQSDDAATYYCQQTFDCTDVENVFGGGTEVVVK", 0.067),
]

# map each binder to its IL-8 [abs. corr.]
1. P018.S.01.A.F05 (antibody, V domains shown, V regions on human Ig constant parts; also called AB27_20) VH: QEQLEESGGDLVKPEGSLTLTCTASGFSFSSSYWICWVRQAPGKGLEWIGCIITGRGNTYYANWAKGRFTISKTSSTTVTLQMTSLTAADTAIYSCARGPGGADPVNLWGPGTLVTVSS VL: DVVMTQTPASVSEPVGGTVTIKCQASQSIYSNLAWYQQKPGQPPKLLIYRASTLTSGVPSRFKGSGSGTQFTLTISDLESADAATYYCQCTYDGSSYVPNAFGGGTEVVVK
2. P018.S.07.A.A05 (antibody, V domains shown, V regions on human Ig constant parts; also called AB27_114) VH: QEHLEESGGDLVKPGASLTLTCKASGFDLSINVMCWVRQAPGKGPEWIVCIDNGDGSTYYASWVNGRFTISKTSSTTVTLQMTSLTAADTATYFCARPGTFTYGGNTYPGSFVLWGPGTLVTVSS VL: AFELTQTPSSVEAAVGGTVTINCQASQSISNALAWYQQKPGQPPKLLIYTASNLASGVPSRFKGSGSGTQFTLTISDLESADAATYYCQNYYVNIIGIGFGGGTEVVVK
3. P018.S.10.A.E04 (antibody, V domains shown, V regions on human Ig constant parts; also called AB27_177) VH: QSLEESGGDLVKPGASLTLTCTASGFSFSSSYWICWVRQAPGKGLEWVACISAPGSGSTFDASWAKGRFTISKTSSTTVTLQMTSLTAADTATYFCARFYAGGSGDYFDLWGPGTLVTVSS VL: QIVMTQTPSSTSEPVGGTVSIKCQASQNIGSYLAWYQQKPGQPPKVLIYTTSDLASGVPSRFKGSGSGTQFTLTISDLESDDAATYYCLGVYGYSSDDVAFGGGTEVVVK
4. P018.S.07.A.C04 (antibody, V domains shown, V regions on human Ig constant parts; also called AB27_120) VH: QEQLVESGGGLVQPEGSLTLTCTASGFSFSSRFWICWVRQAPGKGLEWIACIYGGSTSATYDASWAKGRFTISKTSSTTVTLQMTSLTAADTATYFCTRLPTYDAYVFNLWGPGTLVTVSS VL: AIVMTQTPSSKSVPVGATATINCQASESVFSNNYLSWYQQKPGRSPKLLIYEASKLASGVPSRFSGSGSGTQFTLTISDVVSDDAATYYCGGYKSNNVDGYAFGGGTEVVVK
5. P018.S.06.A.F03 (antibody, V domains shown, V regions on human Ig constant parts; also called AB27_108) VH: QSLEESGGDLVRPGASLTLTCTASGLSFSDRYWISWVRQAPGKGLEWIASIYTGSDGVADYATWAKGRVTISKTSSTTVTLQMTSLTAADTATYFCARDREYGSNTGVYSLWGPGTLVTVSS VL: DVLMTQTPSSVSPAVGGTVTIKCQASQNIYSNLAWYQQKPGQRPKLLVYDASNLEYGVPSRFKGSGSGTEYTLTISDLESADAANYYCQCTYYGNNYITFGGGTEVVVR
6. P018.S.07.A.H02 (antibody, V domains shown, V regions on human Ig constant parts; also called AB27_131) VH: QEQLVESGGGLVQPEGSLTLTCKASGFDFSSDAMCWVRQAPGKGLEWIACIYVGSVGSSWYASWAKGRFTISKSSSTTVTLQVTSLTAADTATYFCARGENIAYFTFWGPGTLVTVSS VL: DIMMTQTPASVSAAVGGTVTIKCQASQSINSWLSWYQQKPGQPPKLLIYKASTLASGVPSRFEGSGSGTEFTLTISDLESADAATYYCQGYYYYSSSNFASNAFGGGTEVVVK
7. P018.S.10.A.E01 (antibody, V domains shown, V regions on human Ig constant parts; also called AB27_175) VH: QEQLVESGGGLVQPEGSLTLTCTATGIDFSTNYRSCWVRQAPGKGLEWIACIDTDDSDSTYYASWAKGRFTISKTSSTTVTLQMTSLTAADTATYFCTRAYTTSDYAWSFYLWGPGTLVTVSS VL: DLVMTQTPASVEAAVGGTVTIKCQTSQSISKFLNWYQQTPGQPPKLLIYRASTLESGVPSRFEGSGSGTEFTLTISDLESADAATYYCQCTYGGTSGSVWAFGGGTEVVVK

1. 0.559
2. 0.408
3. 0.339
4. 0.302
5. 0.063
6. 0.107
7. 0.257
